Sourced from ChEMBL document CHEMBL1138296

Target: Farnesyl pyrophosphate synthase (Homo sapiens, UniProt P14324)
Sequence (P14324 whole entry): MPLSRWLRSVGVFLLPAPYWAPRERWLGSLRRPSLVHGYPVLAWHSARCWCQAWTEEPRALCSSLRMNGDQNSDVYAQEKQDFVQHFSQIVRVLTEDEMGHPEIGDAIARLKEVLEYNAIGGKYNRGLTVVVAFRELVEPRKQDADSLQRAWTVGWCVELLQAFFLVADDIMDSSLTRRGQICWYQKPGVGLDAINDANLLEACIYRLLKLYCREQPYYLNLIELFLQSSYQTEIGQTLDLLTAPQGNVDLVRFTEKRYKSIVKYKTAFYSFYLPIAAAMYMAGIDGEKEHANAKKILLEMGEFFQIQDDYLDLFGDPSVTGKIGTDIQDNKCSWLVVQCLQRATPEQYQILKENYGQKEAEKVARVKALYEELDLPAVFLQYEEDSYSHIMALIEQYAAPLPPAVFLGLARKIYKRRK
PROPERTY: IC50 (nM)
State the answer as a number, implicitly in nM.

# count of solved cases: 2
>  <SMILES_STRING>
O=P(O)(O)C(Cl)(Cc1cccnc1)P(=O)(O)O

>  <U>
nM

>  <MEASURED_NUMBER>
94.6

$$$$
>  <SMILES_STRING>
O=P(O)(O)C(Br)(Cc1cccnc1)P(=O)(O)O

>  <U>
nM

>  <MEASURED_NUMBER>
340

$$$$

Now look at this one.
Field request: IC50 | item: "O=P(O)(O)C(Cc1cccnc1)P(=O)(O)O" 34.2

====

Measured pIC50 accompanies every entry in the list below.
Test: Reduction of viability of mouse […] cells after 48 hrs
Assay type: cell-based
Please express pIC50 as -log10 of the molar concentration.

>  <MOLECULE>
O=C(O)C(Br)(Cc1cccnc1)P(=O)(O)O (centres undefined)

>  <MEASURED_NUMBER>
5.26

$$$$
>  <MOLECULE>
O=C(O)[C@@](O)(Cc1cccnc1)P(=O)(O)O

>  <MEASURED_NUMBER>
5.64

$$$$
>  <MOLECULE>
O=P(O)(O)C(Cc1cccnc1)P(=O)(O)O

>  <MEASURED_NUMBER>
3.67

$$$$

Now look at this one.
Field request: pIC50 | item: "O=P(O)(O)C(Cl)(Cc1cccnc1)P(=O)(O)O" 3.17

====

Assay: Reduction of viability of mouse […] cells after 48 hrs
Format: cell-based
PROPERTY: pIC50
Please express pIC50 as -log10 of the molar concentration.

>  <MOLECULE>
O=P(O)(O)C(O)(Cc1cccnc1)P(=O)(O)O

>  <pIC50>
4.51

$$$$
>  <MOLECULE>
O=C(O)C(F)(Cc1cccnc1)P(=O)(O)O (stereo unspecified)

>  <pIC50>
5.74

$$$$
>  <MOLECULE>
O=P(O)(O)C(F)(Cc1cccnc1)P(=O)(O)O

>  <pIC50>
3.85

$$$$
>  <MOLECULE>
O=C(O)C(Cl)(Cc1cccnc1)P(=O)(O)O (stereo unspecified)

>  <pIC50>
5.30

$$$$

Field request: pIC50 | item: "O=P(O)(O)C(Br)(Cc1cccnc1)P(=O)(O)O" 3.17

Quick one: O=C(O)C(Cc1cccnc1)P(=O)(O)O (stereo unspecified) 5.59
